Where do the numbers come from? From patent US8822517B2.

Biological target: serotoninergic receptor 5-HT2C (Homo sapiens, UniProt P28335)
Construct: expressed in transfected cells; host or cells: HEK-293 cells
Sequence (P28335 33-458): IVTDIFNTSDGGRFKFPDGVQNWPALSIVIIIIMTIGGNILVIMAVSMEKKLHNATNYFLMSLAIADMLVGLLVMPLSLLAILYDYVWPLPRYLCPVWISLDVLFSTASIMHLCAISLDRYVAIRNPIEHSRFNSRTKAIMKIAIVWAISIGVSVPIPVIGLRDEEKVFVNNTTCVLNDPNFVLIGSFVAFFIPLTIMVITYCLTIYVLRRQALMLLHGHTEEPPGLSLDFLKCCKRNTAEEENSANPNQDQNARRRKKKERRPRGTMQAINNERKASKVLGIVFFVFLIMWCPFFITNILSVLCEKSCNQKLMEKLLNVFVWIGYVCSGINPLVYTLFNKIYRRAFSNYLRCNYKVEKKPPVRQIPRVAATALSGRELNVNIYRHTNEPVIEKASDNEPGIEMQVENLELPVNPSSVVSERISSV
Assay: Binding assay 5-HT2C (h), [3H]mesulergine, HEK-293 cells
Details: read-out: 5-HT2C [%]
Hi, to clarify the labels: rule met covers inhibition at 1 µM from 80% upward, rule not met covers anything below 80%.

# check: inhibition at 1 µM of O=S(=O)(NCCCCN1CCC(c2noc3cc(F)ccc23)CC1)c1cccs1 [Compound 325] is greater than or equal to 80%
rule not met

Please check the record O=S(=O)(NCCCCN1CCN(c2nsc3ccccc23)CC1)c1cccc(O)c1 [Compound 231] and state if its inhibition at 1 µM is at or above 80%.
rule met

Record Cc1cccc(S(=O)(=O)NCCN2CCC(c3noc4cc(F)ccc34)CC2)c1 [Compound 25] ; criterion: inhibition at 1 µM no lower than 80%. Met?
rule not met

Could you verify whether the entry Cc1cccc(S(=O)(=O)NCCN2CCN(c3nsc4ccccc34)CC2)c1 [Compound 11] shows inhibition at 1 µM of no less than 80%?
rule not met

Evaluate O=S(=O)(NCCN1CCC(c2noc3cc(F)ccc23)CC1)c1ccc2ccccc2c1 [Compound 24] : inhibition at 1 µM at minimum 80%?
rule not met

Textbook exercise: given the entry O=S(=O)(NCCCN1CCN(c2nsc3ccccc23)CC1)c1cccc(Cl)c1 [Compound 70] , state whether its inhibition at 1 µM is greater than or equal to 80%.
rule met

Determine whether measured inhibition at 1 µM meets or exceeds 80% for O=S(=O)(NCCCN1CCN(c2nsc3ccccc23)CC1)c1cc2ccccc2s1 [Compound 262]
rule met

###

Please provide measured α1 [%] for the entries that follow.
Test system: adrenergic α1 receptor
Experiment: Binding assay α1 (non-selective), [3H]prazosin, rat cerebral cortex
Settings: percent inhibition of control specific binding; compounds tested at 1×10^−6 M
Dear colleague, please return just the value in %, with no unit written.

Please look up its α1 [%]: O=S(=O)(NCCCN1CCN(c2cccc3c2OCCO3)CC1)c1ccc(F)c(F)c1 [Compound 410]
84

Given the molecule O=S(=O)(NCCCCN1CCN(c2nsc3ccccc23)CC1)c1ccc2c(c1)OCO2 [Compound 245] , what is its reported α1 [%]?
96

For the molecule shown here, O=S(=O)(NCCCCN1CCC(c2noc3cc(F)ccc23)CC1)c1ccc(Cl)c(Cl)c1 [Compound 297] , give the reported α1 [%].
100

Find the recorded α1 [%] belonging to N#Cc1cccc(S(=O)(=O)NCCCCN2CCN(c3noc4ccccc34)CC2)c1 [Compound 282] and report it.
102

Need α1 [%], item O=S(=O)(NCCCCN1CCN(c2nsc3ccccc23)CC1)c1ccc(F)cc1 [Compound 225]
94

Which α1 [%] value belongs to O=C1COc2c(cccc2N2CCN(CCCCNS(=O)(=O)c3ccc(Cl)s3)CC2)N1 [Compound 431] ?
88

Bench note: what α1 [%] did COc1ccc(S(=O)(=O)NCCCCN2CC=C(c3c[nH]c4ccc(Cl)cc34)CC2)cc1 [Compound 42] show?
77

Entry Cc1cccc(S(=O)(=O)NCCCN2CCN(c3cccc4[nH]c(=O)[nH]c34)CC2)c1 [Compound 426] has what α1 [%]?
67

###

Tested on: adrenergic α1 receptor
Assay: Binding assay α1 (non-selective), [3H]prazosin, rat cerebral cortex
Settings: percent inhibition of control specific binding; compounds tested at 1×10^−6 M
Assign α1 [%] to each entry below.
The reply should contain only the number, in %.

For `O=S(=O)(NCCCN1CCC(c2noc3cc(F)ccc23)CC1)c1csc2ccccc12` , what is its reported α1 [%]?
103

Param item = `O=S(=O)(NCCCN1CCN(c2cccc3c2OCCO3)CC1)c1cccc2ccccc12` ; retrieve measured α1 [%].
82

Can you look up the measured α1 [%] of `O=S(=O)(NCCCCN1CCN(c2noc3ccccc23)CC1)c1ccc(Cl)c(Cl)c1` for me?
97

// lookup α1 [%] for `Cc1[nH]c2ccc(Cl)cc2c1C1=CCN(CCNS(=O)(=O)c2cccc(Cl)c2)CC1`
14

For `O=S(=O)(NCCCN1CCN(c2nsc3ccccc23)CC1)c1ccc(-c2ccccc2)cc1` , what is its reported α1 [%]?
91

Suppose we examine the compound `O=S(=O)(NCCCN1CCN(c2nsc3ccccc23)CC1)c1cccc2scnc12` ; what α1 [%] value has been reported?
97

Bench note: what α1 [%] did `O=S(=O)(NCCCCN1CCN(c2nsc3ccccc23)CC1)c1cccc(O)c1` show?
96

Record request: α1 [%] value, item `COc1cccc(S(=O)(=O)NCCCCN2CCN(c3nsc4ccccc34)CC2)c1`
94

###

Task for the reader: assign each of the following molecules its reported inhibition at 1 µM.
Target: serotoninergic 5-HT6 receptor (Homo sapiens, UniProt P50406)
Sequence (P50406 whole entry): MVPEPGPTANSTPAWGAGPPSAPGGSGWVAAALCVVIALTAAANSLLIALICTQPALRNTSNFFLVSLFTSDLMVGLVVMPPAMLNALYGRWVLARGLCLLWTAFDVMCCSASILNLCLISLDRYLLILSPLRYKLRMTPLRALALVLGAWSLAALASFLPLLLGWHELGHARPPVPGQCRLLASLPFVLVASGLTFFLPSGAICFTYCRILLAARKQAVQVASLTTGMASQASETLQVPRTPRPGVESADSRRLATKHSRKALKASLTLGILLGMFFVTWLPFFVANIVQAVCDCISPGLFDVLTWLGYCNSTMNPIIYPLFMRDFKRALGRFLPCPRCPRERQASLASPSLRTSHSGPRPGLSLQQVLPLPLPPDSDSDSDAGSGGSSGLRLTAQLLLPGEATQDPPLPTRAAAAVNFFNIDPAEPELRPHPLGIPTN
Assay: Binding assay 5-HT6 (h), [3H]LSD, CHO cells
Set-up: expressed in transfected cells; host or cells: CHO cells
Conditions: read-out: 5-HT6
Report the value in % with no unit label.

Form field: inhibition at 1 µM recorded for O=S(=O)(NCCCN1CCC(c2noc3cc(F)ccc23)CC1)c1cc2ccccc2o1 [Compound 349] with serotoninergic 5-HT6 receptor (Homo sapiens, UniProt P50406) (enter value)
87

Record O=c1[nH]c2cccc(N3CCN(CCCNS(=O)(=O)c4cccc(F)c4)CC3)c2[nH]1 [Compound 176] : what is its inhibition at 1 µM with serotoninergic 5-HT6 receptor (Homo sapiens, UniProt P50406)?
29

Kindly state the measured inhibition at 1 µM obtained for O=S(=O)(NCCCN1CCN(c2nsc3ccccc23)CC1)c1ccc(C(F)(F)F)cc1 [Compound 257] with serotoninergic 5-HT6 receptor (Homo sapiens, UniProt P50406).
94

Reported inhibition at 1 µM for serotoninergic 5-HT6 receptor (Homo sapiens, UniProt P50406), given O=S(=O)(NCCCN1CCC(c2noc3cc(F)ccc23)CC1)c1cccc(C(F)(F)F)c1 [Compound 335] ?
93

// map O=S(=O)(NCCCN1CCC(c2noc3cc(F)ccc23)CC1)c1ccc(F)c(F)c1 [Compound 327] to recorded inhibition at 1 µM (system: serotoninergic 5-HT6 receptor (Homo sapiens, UniProt P50406))
99

Under serotoninergic 5-HT6 receptor (Homo sapiens, UniProt P50406): inhibition at 1 µM value of O=S(=O)(NCCCN1CCC(c2noc3cc(F)ccc23)CC1)c1ccc(-c2ccccc2)cc1 [Compound 112] ?
94

Look up inhibition at 1 µM with serotoninergic 5-HT6 receptor (Homo sapiens, UniProt P50406) for this molecule: O=S(=O)(NCCCCN1CCN(c2nsc3ccccc23)CC1)c1c[nH]c2ncccc12 [Compound 247]
93

Short answer please: inhibition at 1 µM, serotoninergic 5-HT6 receptor (Homo sapiens, UniProt P50406), entry O=S(=O)(NCCCN1CCN(c2nsc3ccccc23)CC1)c1ccc(Br)cc1 [Compound 252]
93

Checklist item: inhibition at 1 µM tested on serotoninergic 5-HT6 receptor (Homo sapiens, UniProt P50406), entry O=S(=O)(NCCCN1CCC(c2noc3cc(F)ccc23)CC1)c1ccc2c(c1)CCO2 [Compound 350] , value?
96

Param readout= inhibition at 1 µM; system= serotoninergic 5-HT6 receptor (Homo sapiens, UniProt P50406); entry= O=S(=O)(NCCCCN1CCN(c2nsc3ccccc23)CC1)c1ccc(-c2ccccc2)cc1 [Compound 237] ; returns value.
89

Recall the recorded inhibition at 1 µM for O=C1Cc2cc(S(=O)(=O)NCCCCN3CCC(c4noc5cc(F)ccc45)CC3)ccc2N1 [Compound 324] with serotoninergic 5-HT6 receptor (Homo sapiens, UniProt P50406) and state it.
78

Please tell me: inhibition at 1 µM of O=S(=O)(NCCCCN1CCC(c2noc3cc(F)ccc23)CC1)c1cnc2ccccn12 [Compound 322] , system serotoninergic 5-HT6 receptor (Homo sapiens, UniProt P50406)?
62

Which measured inhibition at 1 µM belongs to O=S(=O)(NCCCCN1CCN(c2nsc3ccccc23)CC1)c1ccc2ccccc2c1 [Compound 2] , tested on serotoninergic 5-HT6 receptor (Homo sapiens, UniProt P50406)?
97

Observed inhibition at 1 µM on serotoninergic 5-HT6 receptor (Homo sapiens, UniProt P50406) for Cc1c(S(=O)(=O)NCCCN2CCC(c3noc4cc(F)ccc34)CC2)sc2ccc(F)cc12 [Compound 102] , please.
97

Observed inhibition at 1 µM on serotoninergic 5-HT6 receptor (Homo sapiens, UniProt P50406) for O=S(=O)(NCCCN1CCN(c2nsc3ccccc23)CC1)c1cccc(Br)c1 [Compound 253] , please.
101

Could you share what inhibition at 1 µM was measured for O=S(=O)(NCCCCN1CCC(c2noc3cc(F)ccc23)CC1)c1csc2ccccc12 [Compound 313] , tested on serotoninergic 5-HT6 receptor (Homo sapiens, UniProt P50406)?
100

###

Exercise: for every item that follows, state its recorded σ [%].
System: sigma σ receptor
Assay: Binding assay σ (non-selective), [3H]DTG, rat cerebral cortex
Details: percent inhibition of control specific binding; compounds tested at 1×10^−6 M
Protocol: The specific ligand binding to the receptors is defined as the difference between the total binding and the nonspecific binding determined in the presence of an excess of so unlabelled ligand. The specific Ligand binding to the receptor is defined as the difference between total and non-specific binding determined in the presence of an excess of unlabelled ligand. The compounds were tested at a concentration of 1×10^−6 M, and scintillation counting was the method of detection of ligand binding.
Response body: numeric value in %, unit text excluded.

Fill in the blank: the reported σ [%] of O=S(=O)(NCCCCN1CCN(c2noc3ccccc23)CC1)c1cccc2ccccc12 [Compound 13] is ____.
87

Look at this compound and give its reported σ [%]. Cc1cccc(S(=O)(=O)NCCCN2CCN(c3nsc4ccccc34)CC2)c1 [Compound 7]
61

Fill blank: measured σ [%] of the compound O=S(=O)(NCCCCN1CCN(c2noc3ccccc23)CC1)c1cc2ccc(Cl)cc2s1 [Compound 288] is ____.
45

Record request: σ [%] value, item O=S(=O)(NCCCN1CCN(c2nsc3ccccc23)CC1)c1cccc2ccccc12 [Compound 5]
72

# input compound: O=S(=O)(NCCCN1CCN(c2nsc3ccccc23)CC1)c1ccc(Cl)s1 [Compound 196] ; wanted: its σ [%]
66

Form field: reported σ [%] of O=S(=O)(NCCCCN1CCC(c2noc3cc(F)ccc23)CC1)c1cc2ccccc2s1 [Compound 312]
71

Which σ [%] value belongs to O=S(=O)(NCCCCN1CCC(c2noc3cc(F)ccc23)CC1)c1cccs1 [Compound 325] ?
85

Return reported σ [%]; argument: O=S(=O)(NCCCCN1CCN(c2noc3ccccc23)CC1)c1ccc2cc(Cl)ccc2c1 [Compound 79]
37
